- SYSTEM: recombinant human ALK enzyme (ALK WT) (Homo sapiens, UniProt Q9UM73)
- Construct: purchased Carna Biosciences 08-518
- Sequence (Q9UM73 1058-1620 limits assumed): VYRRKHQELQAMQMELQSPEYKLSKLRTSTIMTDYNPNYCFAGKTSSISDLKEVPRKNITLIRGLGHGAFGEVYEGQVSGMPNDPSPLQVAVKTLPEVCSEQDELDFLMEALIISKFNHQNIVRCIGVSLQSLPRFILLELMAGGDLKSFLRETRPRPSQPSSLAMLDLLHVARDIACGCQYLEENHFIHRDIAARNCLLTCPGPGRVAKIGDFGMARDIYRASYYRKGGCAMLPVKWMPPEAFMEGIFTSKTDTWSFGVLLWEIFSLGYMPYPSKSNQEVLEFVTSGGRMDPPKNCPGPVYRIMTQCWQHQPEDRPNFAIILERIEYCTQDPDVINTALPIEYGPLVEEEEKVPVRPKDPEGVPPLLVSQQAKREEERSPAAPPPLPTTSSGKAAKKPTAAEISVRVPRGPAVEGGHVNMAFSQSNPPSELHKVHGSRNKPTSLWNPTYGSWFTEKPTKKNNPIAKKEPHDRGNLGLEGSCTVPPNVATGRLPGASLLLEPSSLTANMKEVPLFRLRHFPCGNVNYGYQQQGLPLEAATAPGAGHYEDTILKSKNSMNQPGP
- EXPERIMENT: ALK WT cell free enzymatic assay (TR-FRET)
- Assay type: biochemical
- MEASUREMENT_CONDITIONS: compound at 1 μM; 30 min pre-incubation; 1 μM ATP
MEASURE_NAME: inhibition at 1 µM

Known results for molecules:
SMILES_STRING	REPORTED_VALUE
NC(=O)CN1CCC(Cc2cccc(-c3cnc4[nH]cc(-c5cnn(Cc6cccc(F)c6)c5)c4c3)c2)CC1	100%
O=C(C1CC1)N1CCN(c2ccc(-c3cnc4[nH]cc(-c5cnn(Cc6cccc(F)c6)c5)c4c3)cn2)CC1	93%
CS(=O)(=O)Nc1cccc(-c2cnc3[nH]cc(-c4cnn(Cc5cc(F)ccc5F)c4)c3c2)c1	95%
COc1ccc(-c2cnc3[nH]cc(-c4c(C)nn(Cc5cc(F)ccc5F)c4C)c3c2)cc1NS(C)(=O)=O	87%
O=C(CO)N1CCN(c2ccc(-c3cnc4[nH]cc(-c5cnn(Cc6cccc(F)c6)c5)c4c3)cc2)CC1	94%

Dear colleague, could you send me inhibition at 1 µM for each of the items below? Thanks.
1. Cc1cc(-c2cnc3[nH]cc(-c4cnn(Cc5cccc(F)c5)c4)c3c2)ccc1N1CCN(C[C@H](C)O)CC1
2. CN1CCN(c2ccc(-c3cnc4[nH]cc(-c5cnn(Cc6cc(F)cc(F)c6)c5)c4c3)cn2)CC1

Response given:
1. 100%
2. 100%
